- target_or_system: Pyruvate kinase PKM (Homo sapiens)
- assay_overview: qHTS Assay for Activators of Human Muscle isoform 2 Pyruvate Kinase; further: nearly all actives have a fitted effect of over 55% in size
- condition_description: purified PKM2, Kinase-Glo ATP luminescence; activation; series mostly up to 57.5 µM
Screen size: about 260,000 compounds; about 890 (0.34%) were called active. Inconclusive results (about 1%) are left out. The call rests on the fitted dose curve; in most records, active means well fitted activation curve with a large enough effect; inconclusive means small, poorly fitted or top-dose-only effect; inactive means no such curve, though single readings can be large or run the other way. Shown is part of a subset that was picked to be rich in actives.
Hi there, use one of these labels in your reply, thanks! t = active, f = inactive

Answered examples (5):
                                   compound  group_label
0  COc1ccc(Cl)cc1NC(=O)c1cccc(N2C(=O)C3CC=CCC3C2=O)c1 (stereo not given)            f
1  COc1cc(/C=N\Nc2nc(-c3cccs3)c(NC(C)=O)s2)ccc1O            t
2  CCC1CCCCN1C(=S)Nc1ccc(S(=O)(=O)Nc2ncccn2)cc1 (stereo not given)            f
3  CCOc1cc(/C=C(\C#N)c2nc(-c3cccs3)c(NC(C)=O)s2)ccc1O            f
4  O=C(NCC(=O)N1CCN(c2ncc(C(F)(F)F)cc2Cl)CC1)c1ccc(Br)o1            f

// query Which outcome was entered for the compound COc1ccc(N2CCN(S(=O)(=O)CCNC(=O)C34CC5CC(CC(C5)C3)C4)CC2)cc1 in this test?
// result f

// query Which outcome was entered for the compound COc1ccc(CN2CCCC(N3CCc4ccccc4C3)C2)c(O)c1 (stereo not given) in this test?
// result f

// query Which outcome was entered for the compound CN(CC1CCCO1)S(=O)(=O)c1ccc(C(=O)Nc2ccc([N+](=O)[O-])cc2)cc1 (stereo not given) in this test?
// result f

// query Which outcome was entered for the compound CC(=O)CCC(=O)c1ccc2ccccc2c1 in this test?
// result f

// query Which outcome was entered for the compound Cc1ccccc1NC(=O)CSc1nc2ccc(Nc3nc(N4CCOCC4)nc(N4CCOCC4)n3)cc2s1 in this test?
// result f

* * *

- target_or_system: Pyruvate kinase PKM (Homo sapiens) (UniProt P14618)
- Sequence (P14618 whole entry, looked up, canonical isoform): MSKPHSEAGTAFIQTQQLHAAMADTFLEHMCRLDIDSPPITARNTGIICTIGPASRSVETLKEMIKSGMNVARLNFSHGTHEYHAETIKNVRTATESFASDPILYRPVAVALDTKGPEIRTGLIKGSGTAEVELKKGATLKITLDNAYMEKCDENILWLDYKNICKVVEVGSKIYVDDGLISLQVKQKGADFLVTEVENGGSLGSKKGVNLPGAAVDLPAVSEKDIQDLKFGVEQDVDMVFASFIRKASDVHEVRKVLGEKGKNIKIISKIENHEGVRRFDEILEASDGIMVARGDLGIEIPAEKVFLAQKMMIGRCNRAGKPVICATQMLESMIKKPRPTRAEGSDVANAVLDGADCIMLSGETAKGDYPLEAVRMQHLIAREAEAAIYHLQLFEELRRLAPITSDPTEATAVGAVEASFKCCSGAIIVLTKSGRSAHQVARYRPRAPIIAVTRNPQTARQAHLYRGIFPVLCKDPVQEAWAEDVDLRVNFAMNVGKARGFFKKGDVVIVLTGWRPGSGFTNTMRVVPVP
- assay_overview: qHTS Assay for Activators of Human Muscle isoform 2 Pyruvate Kinase; further: nearly all actives have a fitted effect of over 55% in size
- condition_description: purified PKM2, Kinase-Glo ATP luminescence; activation; series mostly up to 57.5 µM
The campaign covered roughly 260,000 compounds. About 890 (0.34%) were called active. Another 1% or so got no clear call; they are omitted. Calls follow the shape of the dose curve; as a rule, active = well fitted activation curve with a large enough effect; inconclusive = small, poorly fitted or top-dose-only effect; inactive = no such curve, though single readings can be large or run the other way. The sample holds actives, similar compounds and a random draw of the others, so the mix is not that of the screen.
Hi there, use one of these labels in your reply, thanks! active, inactive

Answered examples (4):
                                   compound  group_label
0  CCN(C(=O)COc1ccc(C(=O)c2ccccc2)cc1)c1ccccc1     inactive
1              Nc1nnc(SCn2nnc3ccccc3c2=O)s1     inactive
2     CNC(=O)COc1ccc(S(=O)(=O)Nc2ccccc2)cc1       active
3  CC(C)c1ccc(NC2CCCN(C(=O)c3ccncc3)C2)cc1 (configuration not stated)     inactive

// query Which outcome was entered for the compound CCOc1ccccc1N1C(=O)CC(Sc2nccc(C)n2)C1=O (configuration not stated) in this test?
// result inactive

// query Which outcome was entered for the compound CC1CCN(C(=S)NC(=O)c2ccccc2Br)CC1 in this test?
// result inactive

// query Which outcome was entered for the compound CCCc1cc(C(=O)N2CCCC(CO)(CCCc3ccccc3)C2)n(C)n1 (configuration not stated) in this test?
// result inactive

// query Which outcome was entered for the compound COc1ccccc1N1CCN(C(=O)CCS(=O)(=O)c2ccc3c(c2)NC(=O)C(C)S3)CC1 (configuration not stated) in this test?
// result inactive

// query Which outcome was entered for the compound COC(=O)COc1ccc(S(=O)(=O)Nc2ccc(NC(C)=O)cc2)cc1 in this test?
// result inactive

// query Which outcome was entered for the compound CCC(C)c1ccccc1NC(=O)CN(C)CC(=O)Nc1ccccc1SC (configuration not stated) in this test?
// result inactive

// query Which outcome was entered for the compound CCCC(C(=O)NC1CCCC1)N(C(=O)Cn1nnc(-c2ccc(C)o2)n1)c1cccc(O)c1 (configuration not stated) in this test?
// result inactive

* * *

- target_or_system: Pyruvate kinase PKM (Homo sapiens) (UniProt P14618)
- assay_overview: qHTS Assay for Activators of Human Muscle isoform 2 Pyruvate Kinase; further: nearly all actives have a fitted effect of over 55% in size
- condition_description: purified PKM2, Kinase-Glo ATP luminescence; activation; series mostly up to 57.5 µM
Screen size: about 260,000 compounds; about 890 (0.34%) were called active. Roughly 1% stayed inconclusive and do not appear here. The call rests on the fitted dose curve; in most records, active means well fitted activation curve with a large enough effect; inconclusive means small, poorly fitted or top-dose-only effect; inactive means no such curve, though single readings can be large or run the other way. The entries come from a sample that favours actives as a whole.
Hi there, use one of these labels in your reply, thanks! active, inactive

                            compound  group_label
0      CCSc1nsc(NC(=O)Nc2ccccc2OC)n1     inactive
1  CCOc1ccccc1NC(=S)NC(=O)CCc1ccccc1     inactive

Here's the next entry for you.
// query Which outcome was entered for the compound Cc1ccccc1C(=O)N1CCN(c2ccc(NC(=O)c3cccs3)cc2)CC1 in this test?
// result inactive

* * *

- target_or_system: Pyruvate kinase PKM (Homo sapiens) (UniProt P14618)
- assay_overview: qHTS Assay for Activators of Human Muscle isoform 2 Pyruvate Kinase; further: nearly all actives have a fitted effect of over 55% in size
- condition_description: purified PKM2, Kinase-Glo ATP luminescence; activation; series mostly up to 57.5 µM
About 890 (0.34%) of roughly 260,000 compounds were called active. About 1% were inconclusive and are not listed. The call rests on the fitted dose curve; in most records, active means well fitted activation curve with a large enough effect; inconclusive means small, poorly fitted or top-dose-only effect; inactive means no such curve, though single readings can be large or run the other way. For the sample, actives were picked, then their nearest neighbours and some compounds at random.
Hi there, use one of these labels in your reply, thanks! active, inactive

>>> df
                                   compound  group_label
0  COc1ccc(CCNS(=O)(=O)c2cc3c(cc2C)NC(=O)CO3)cc1OC     inactive
1         Cc1cccc(CSc2nc3c(c(=O)n2C)SCC3)c1       active
2  C=CCn1c(SCc2csc(C)n2)nc2scc(-c3ccc(C)o3)c2c1=O       active
3  O=C(CCCC(=O)N1CCN(c2cccc(Cl)c2)CC1)c1ccccc1     inactive
4  C=CCNC(=O)CSc1nc2scc(-c3ccco3)c2c(=O)n1CC=C     inactive

// query Which outcome was entered for the compound CCc1ccccc1OCC(=O)Nc1ccc2c(c1)OCCO2 in this test?
// result inactive

// query Which outcome was entered for the compound Cc1cc2c(cc1S(=O)(=O)NCc1ccc(Cl)cc1)OCC(=O)N2 in this test?
// result inactive

* * *

- target_or_system: Pyruvate kinase PKM (Homo sapiens)
- assay_overview: qHTS Assay for Activators of Human Muscle isoform 2 Pyruvate Kinase; further: nearly all actives have a fitted effect of over 55% in size
- condition_description: purified PKM2, Kinase-Glo ATP luminescence; activation; series mostly up to 57.5 µM
Hit rate of the full screen: of about 260,000 compounds, about 890 (0.34%) were called active. Inconclusive results (about 1%) are left out. Calls follow the shape of the dose curve; as a rule, active = well fitted activation curve with a large enough effect; inconclusive = small, poorly fitted or top-dose-only effect; inactive = no such curve, though single readings can be large or run the other way. This excerpt belongs to a sample that is enriched for actives.
Hi there, use one of these labels in your reply, thanks! active, inactive

Answered examples (5):
                                   compound  group_label
0  Cc1nc(SCC(=O)N2CCc3ccccc3C2)c2c(C)c(C)sc2n1     inactive
1   COc1ccc(NC(=O)CSc2nc3ccccc3c(=O)n2C)cc1     inactive
2  CCCn1c(C2CCCN2c2nc(-c3ccc(OC)cc3)cs2)nc2ccccc21 (stereo unspecified)     inactive
3  O=C(Nc1ccc(N2CCOCC2)c(Cl)c1)c1ccc(S(=O)(=O)N2CCOCC2)cc1     inactive
4  O=C(NCc1ccco1)c1cccn2c(=O)c3c4c(sc3nc12)CCCC4       active

// query Which outcome was entered for the compound CC(C)NS(=O)(=O)c1ccc(OCC(=O)NC2CCCCCC2)cc1 in this test?
// result inactive

// query Which outcome was entered for the compound CSc1ccc(S(=O)(=O)Nc2cccc(F)c2)cc1 in this test?
// result inactive

// query Which outcome was entered for the compound CC(C)c1ccc(NC(=O)C2CCCN(S(=O)(=O)c3cccnc3)C2)cc1 (stereo unspecified) in this test?
// result inactive

// query Which outcome was entered for the compound CCCCC(C(=O)NC(C)(C)C)N(Cc1ccccc1)C(=O)c1snc(C(N)=O)c1N (stereo unspecified) in this test?
// result inactive

// query Which outcome was entered for the compound COCCNc1cc(-c2ccccc2)nc2cc(-c3cccc(F)c3)nn12 in this test?
// result inactive

// query Which outcome was entered for the compound Cc1ccc(C)c(OCc2cc(C(=O)N3CCN(c4cnccn4)CC3)no2)c1 in this test?
// result inactive

* * *

- target_or_system: Pyruvate kinase PKM (Homo sapiens)
- assay_overview: qHTS Assay for Activators of Human Muscle isoform 2 Pyruvate Kinase; further: nearly all actives have a fitted effect of over 55% in size
- condition_description: purified PKM2, Kinase-Glo ATP luminescence; activation; series mostly up to 57.5 µM
Hit rate of the full screen: of about 260,000 compounds, about 890 (0.34%) were called active. Roughly 1% stayed inconclusive and do not appear here. The call rests on the fitted dose curve; in most records, active means well fitted activation curve with a large enough effect; inconclusive means small, poorly fitted or top-dose-only effect; inactive means no such curve, though single readings can be large or run the other way. Shown is part of a subset that was picked to be rich in actives.
Hi there, use one of these labels in your reply, thanks! YES for active, NO for inactive

Answered examples (10):
>>> df
                                   molecule                    target_or_system  group_label
0  Cc1ccc(NS(=O)(=O)c2cc3c(cc2C)NC(=O)CO3)cc1  Pyruvate kinase PKM (Homo sapiens)          YES
1  O=C(Nc1nc2ccc([N+](=O)[O-])cc2s1)c1ccc(S(=O)(=O)N2CCCc3ccccc32)cc1  Pyruvate kinase PKM (Homo sapiens)           NO
2  CCOC(=O)C1(CCOc2ccccc2)CCN(Cc2ccc(C#CCCO)cc2)CC1  Pyruvate kinase PKM (Homo sapiens)           NO
3  CCn1c(=O)c(=O)n(CC)c2cc(S(=O)(=O)N3CCc4ccccc43)ccc21  Pyruvate kinase PKM (Homo sapiens)           NO
4   CSc1nc2ccc(S(=O)(=O)N3CCc4ccccc43)cc2s1  Pyruvate kinase PKM (Homo sapiens)          YES
5  O=C(CNc1cccc(S(=O)(=O)N2CCCCC2)c1)Nc1ccccc1F  Pyruvate kinase PKM (Homo sapiens)           NO
6           CCn1c(SCc2ccccc2)nc2c(c1=O)SCC2  Pyruvate kinase PKM (Homo sapiens)           NO
7  O=S(=O)(NC1CCCCC1N1CCN(c2ccccc2F)CC1)c1ccccc1 (stereo unspecified)  Pyruvate kinase PKM (Homo sapiens)           NO
8  CCOC(=O)c1csc(CCNC(=O)c2oc3c(Cl)cc(C)cc3c2C)n1  Pyruvate kinase PKM (Homo sapiens)           NO
9  C=CCn1c(SCC(=O)NCC2CCCO2)nc2sc(C)c(C)c2c1=O (stereo unspecified)  Pyruvate kinase PKM (Homo sapiens)           NO

Here's the next entry for you.
// query Which outcome was entered for the molecule CCN1C(=S)N[C@@H](CCc2ccccc2)[C@H](C(=O)OC)[C@H]1C in this test?
// result NO
